Biological target: Recombinant human PKC-theta (His-tagged 362-706) (Homo sapiens)
Construct: Recombinant human PKC-theta (His-tagged 362-706); His
Sequence (Q04759 362-706): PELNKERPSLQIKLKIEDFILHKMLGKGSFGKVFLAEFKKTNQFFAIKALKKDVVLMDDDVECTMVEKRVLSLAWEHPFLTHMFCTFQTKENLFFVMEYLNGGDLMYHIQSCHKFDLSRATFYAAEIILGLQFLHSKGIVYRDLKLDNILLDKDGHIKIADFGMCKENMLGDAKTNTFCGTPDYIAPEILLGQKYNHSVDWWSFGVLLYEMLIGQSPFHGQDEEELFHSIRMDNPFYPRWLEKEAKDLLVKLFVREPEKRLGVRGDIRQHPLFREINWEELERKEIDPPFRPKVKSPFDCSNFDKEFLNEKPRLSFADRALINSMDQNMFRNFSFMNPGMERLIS
Assay: PKC-theta inhibition assay (HTRF KinEASE kit)
Format: biochemical
Settings: ATP 6.5 μM; STK substrate 525 nM; read-out: PKC-theta HTRF pIC50 (converted)
reported property: IC50 (nM)
Answer with a number only, understood to be in nM.

Would you please look over these solved cases?
| molecule | reported value |
| --- | --- |
| CC1(C)C(=O)Nc2nccc(-c3cc(C(F)(F)F)cc(NC4CCNC4)n3)c21 (stereo not drawn) | 63.1 |
| C[C@H]1CNCCN(c2cc(C(F)(F)F)cc(-c3ccnc4c3C(C)(C)C(=O)N4)n2)C1 | 12.6 |
| CC1(C)C(=O)Nc2nccc(-c3cccc(N4CCNCC4)n3)c21 | 10 |
| O=c1[nH]c2nccc(-c3ccnc(N4CCNCC4)c3)c2[nH]1 | 398 |
| O=c1[nH]c2nccc(-c3cccc(N4CCNCC4)c3)c2o1 | 1000 |

*Q* Complete the entry with IC50 for C[C@@H]1CN(c2cc(C(F)(F)F)cc(-c3ccnc4c3[C@](C)(O)C(=O)N4)n2)[C@H](C)CN1 (single isomer, unassigned)
*A* 3.98
